- test: Quantitative solubility determination of voruciclib malonate after the thermocycling experiments (UPLC)
- Format: physicochemical
- assay_setup: 2-propanol, organic solvent or mixture, thermodynamic from solid, 2-Propanol, read-out: Solubility
parameter_measured: solubility (µg/mL)
Express it in µg/mL; write the number only.

(Q) If you can, please state the reported solubility value of CN1CC[C@H](c2c(O)cc(O)c3c(=O)cc(-c4ccc(C(F)(F)F)cc4Cl)oc23)[C@H]1CO (stereo in doubt) [voruciclib malonate] .
(A) 5100

====

- test: Approximate solubility assessment of the free base by the solvent (aliquot) addition method
- Format: physicochemical
- assay_setup: organic solvent or mixture, thermodynamic from solid; Chloroform; RT; approximate, solvent addition; read-out: Solubility
parameter_measured: solubility

(Q) If you can, please state the reported solubility value of CN1CC[C@@H](c2c(O)cc(O)c3c(=O)cc(-c4ccc(C(F)(F)F)cc4Cl)oc23)[C@@H]1CO [Voruciclib] .
(A) ~5000 µg/mL
